I'd be grateful if you could share measured koff for these entries.
Molecular target: T1, human IL-2Rβ ectodomain (amino acids 1-214), C-terminal hexahistidine tag (human, UniProt P14784 27-240)
T1 construct: range 1-214; also called CD122; IL-2Rβ ECD
T1 sequence: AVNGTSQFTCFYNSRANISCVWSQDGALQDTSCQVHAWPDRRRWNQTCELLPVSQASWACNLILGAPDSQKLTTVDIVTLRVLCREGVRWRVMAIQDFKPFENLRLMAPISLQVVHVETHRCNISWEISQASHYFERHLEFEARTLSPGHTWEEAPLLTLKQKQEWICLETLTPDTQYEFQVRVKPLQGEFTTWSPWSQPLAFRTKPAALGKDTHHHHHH
Experiment: surface plasmon resonance
Numbers only, in s⁻¹.

For IL-2 mutein H4 (ligand) APTSSSTKKTQLQLEHLLLDLQMILNGINNYKNPKLTRMLTFKFYMPKKATELKHLQCLEEELKPLEEVLNLASSKNFHLTPRDVISNINVFVLELKGSETTFMCEYADETATIVEFLNRWITFCQSIISTLTHHHHHH the binder record lists koff as 0.013

Entry IL-2 mutein B1 (ligand) APTSSSTKKTQLQLEHLLLDLQMILNGINNYKNPKLTRMLTFKFYMPKKATELKHLQCLEEELKPLEEVLNLANSKNFHFDPRDVVSNVNVFVLELKGSETTFMCEYADETATIVEFLNRWITFCQSIISTLTHHHHHH ; koff = 0.005

Given item IL-2 mutein G8 (ligand) APTSSSTKKTQLQLEHLLLDLQMILNGINNYKNPKLTRMLTFKFYMPKKATELKHLQCLEEELKPLEEVLNLANSKNFHFDPRDVVSNINVFVLELKGSETTFMCEYADETATIVEFLNRWITFCQSIISTLTHHHHHH , the value recorded as its koff is 0.0049

Please fill in: koff reported for IL-2 mutein E10 (ligand) APTSSSTKKTQLQLEHLLLDLQMILNGINNYKNPKLTRMLTFKFYMPKKATELKHLQCLEEELKPLEEVLNLASSKNFHFDPRDVVSNINVFVLELKGSETTFMCEYADETATIVEFLNRWITFCQSIISTLTHHHHHH = 0.0055

Sure, the documented koff for IL-2 mutein C5 (ligand) APTSSSTKKTQLQLEHLLLDLQMILNGINNYKNPKLTRMLTFKFYMPKKATELKHLQCLEEELKPLEEVLNLANSKNFHVTPRDVVSNINVFVLELKGSETTFMCEYADETATIVEFLNRWITFCQSIISTLTHHHHHH is 0.016

Answer for every listed entry: what is its koff? The entries follow.
1. IL-2 mutein H9 (ligand, also called super-IL-2; super-2) APTSSSTKKTQLQLEHLLLDLQMILNGINNYKNPKLTRMLTFKFYMPKKATELKHLQCLEEELKPLEEVLNLAQSKNFHFDPRDVVSNINVFVLELKGSETTFMCEYADETATIVEFLNRWITFCQSIISTLTHHHHHH
2. IL-2 mutein D10 (ligand, also called IL-2 D10; super-2) APTSSSTKKTQLQLEHLLLDLQMILNGINNYKNPKLTRMLTFKFYMPKKATELKHLQCLEEELKPLEEVLNLAHSKNFHFDPRDVVSNINVFVLELKGSETTFMCEYADETATIVEFLNRWITFCQSIISTLTHHHHHH

Result:
0.0056
0.0051
